Tested on: 743489-274-T-PDC complex spheroid growth
Assay: Anticancer human tumor 743489-274-T-PDC patient-derived renal cell carcinoma cell line growth inhibition [AhR]
Details: second compound 1 µM; first compound 0.316 µM; stronger effect = lower value
Measured viability, T/C by item
Output spec: scalar in %, unitless text.

Consider the following illustrative entries.
{"MOLECULE": "COc1cc(C2c3cc4c(cc3C(OC3OC5COC(C)OC5C(O)C3O)C3COC(=O)C23)OCO4)cc(OC)c1O (stereo unspecified) + CC(CO)NC(=O)c1cc(-c2ccc(Cl)cc2)nn(-c2cnn(C)c2)c1=O", "QUANTITY KIND": "viability, T/C", "UNITS SYMBOL": "%", "ENDPOINT VALUE": 101}
{"MOLECULE": "CC1COCCN1c1cc(C2(S(C)(=N)=O)CC2)nc(-c2ccnc3[nH]ccc23)n1 (stereo unspecified) + Cc1cncc(-c2nc(NCCc3c[nH]c4ccccc34)c3ncn(C(C)C)c3n2)c1", "QUANTITY KIND": "viability, T/C", "UNITS SYMBOL": "%", "ENDPOINT VALUE": 97.3}
{"MOLECULE": "NS(=O)(=O)OCC1CC(n2ccc3c(NC4CCc5ccccc54)ncnc32)CC1O (stereo unspecified) + Cc1cncc(-c2nc(NCCc3c[nH]c4ccccc34)c3ncn(C(C)C)c3n2)c1", "QUANTITY KIND": "viability, T/C", "UNITS SYMBOL": "%", "ENDPOINT VALUE": 116}
{"MOLECULE": "O=C(C=Cc1cccc(S(=O)(=O)Nc2ccccc2)c1)NO + Cc1ccccc1N=Nc1ccc(NC(=O)c2ccnn2C)c(C)c1", "QUANTITY KIND": "viability, T/C", "UNITS SYMBOL": "%", "ENDPOINT VALUE": 75.5}
{"MOLECULE": "CC(C)c1c(-c2ccccc2)nc2c(C#N)c[nH]n2c1=O + Cc1ccccc1N=Nc1ccc(NC(=O)c2ccnn2C)c(C)c1", "QUANTITY KIND": "viability, T/C", "UNITS SYMBOL": "%", "ENDPOINT VALUE": 108}

# context switch: different molecule, same viability, T/C
In: Report viability, T/C for COc1ccc([C@@H](O)c2cc(-c3ncnc4cc(N5CCOCC5)ccc34)c(F)cc2Cl)nn1 + Cc1cncc(-c2nc(NCCc3c[nH]c4ccccc34)c3ncn(C(C)C)c3n2)c1 please.
Out: 93.2

====

Test system: 743489-274-T-PDC complex spheroid growth
Assay: Anticancer human tumor 743489-274-T-PDC cell line growth inhibition [AhR];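 further: spheroids exposed to agents for 7 days before readout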;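 on viability, T/C: 100% = DMSO vehicle control wells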
Settings: second compound 1 µM; first compound 10 µM; stronger effect = lower value
QUANTITY KIND: viability, T/C (%)
Just the number in %, nothing appended.

{"COMPOUND": "CC1COCCN1c1cc(C2(S(C)(=N)=O)CC2)nc(-c2ccnc3[nH]ccc23)n1 (stereo not drawn) + Cc1ccccc1N=Nc1ccc(NC(=O)c2ccnn2C)c(C)c1", "UNITS SYMBOL": "%", "viability, T/C": 81.5}
{"COMPOUND": "CC1COCCN1c1cc(C2(S(C)(=N)=O)CC2)nc(-c2ccnc3[nH]ccc23)n1 (stereo not drawn) + CC(CO)NC(=O)c1cc(-c2ccc(Cl)cc2)nn(-c2cnn(C)c2)c1=O", "UNITS SYMBOL": "%", "viability, T/C": 93}

In: I'd like to know its viability, T/C. The compound in question is NS(=O)(=O)OCC1CC(n2ccc3c(NC4CCc5ccccc54)ncnc32)CC1O (stereo not drawn) + Cc1ccccc1N=Nc1ccc(NC(=O)c2ccnn2C)c(C)c1
Out: 141

====

Tested on: 743489-274-T-PDC complex spheroid growth
Test: Anticancer human tumor 743489-274-T-PDC cell line growth inhibition [AhR];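 further: spheroids exposed to agents for 7 days before readout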
Conditions: curve of first compound; second compound 10 µM
pIC50: −log10 of the molar value.
Measured pIC50 of individual entries

Before answering, review these 2 worked examples.
{"MOLECULE": "CC[C@@]1(O)C(=O)OCc2c1cc1n(c2=O)Cc2cc3c(CN(C)C)c(O)ccc3nc2-1 + Cc1ccccc1N=Nc1ccc(NC(=O)c2ccnn2C)c(C)c1", "pIC50": "< 7.00"}
{"MOLECULE": "COc1cc(C2c3cc4c(cc3C(OC3OC5COC(C)OC5C(O)C3O)C3COC(=O)C23)OCO4)cc(OC)c1O (stereo not drawn) + CC(CO)NC(=O)c1cc(-c2ccc(Cl)cc2)nn(-c2cnn(C)c2)c1=O", "pIC50": "< 5.00"}

Could you now look at the following molecule, please?
In: Enter reported pIC50 observed with 743489-274-T-PDC complex spheroid growth for O=C(c1cc(Cc2n[nH]c(=O)c3ccccc23)ccc1F)N1CCN(C(=O)C2CC2)CC1 + CC(CO)NC(=O)c1cc(-c2ccc(Cl)cc2)nn(-c2cnn(C)c2)c1=O
Out: < 5.00

====

Tested on: 743489-274-T-PDC complex spheroid growth
Assay: Anticancer human tumor 743489-274-T-PDC cell line growth inhibition [AhR];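 further: spheroids exposed to agents for 7 days before readout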;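 on viability, T/C: 100% = DMSO vehicle control wells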
Settings: second compound 1 µM; first compound 0.00949 µM; stronger effect = lower value
QUANTITY KIND: viability, T/C (%)
Hi! Could you send only the number? It should be in %, unit omitted.

{"COMPOUND": "CCc1c2c(nc3ccc(O)cc13)-c1cc3c(c(=O)n1C2)COC(=O)[C@]3(O)CC + Cc1ccccc1N=Nc1ccc(NC(=O)c2ccnn2C)c(C)c1", "ASSAY SYSTEM": "743489-274-T-PDC complex spheroid growth", "QUANTITY KIND": "viability, T/C", "ENDPOINT VALUE": 79.6}
{"COMPOUND": "CC(C)CC(NC(=O)C(Cc1ccccc1)NC(=O)c1cnccn1)B(O)O (centres undefined) + Cc1cncc(-c2nc(NCCc3c[nH]c4ccccc34)c3ncn(C(C)C)c3n2)c1", "ASSAY SYSTEM": "743489-274-T-PDC complex spheroid growth", "QUANTITY KIND": "viability, T/C", "ENDPOINT VALUE": 93}
{"COMPOUND": "CC(C)CC(NC(=O)C(Cc1ccccc1)NC(=O)c1cnccn1)B(O)O (centres undefined) + Cc1ccccc1N=Nc1ccc(NC(=O)c2ccnn2C)c(C)c1", "ASSAY SYSTEM": "743489-274-T-PDC complex spheroid growth", "QUANTITY KIND": "viability, T/C", "ENDPOINT VALUE": 113}
{"COMPOUND": "CCN(c1cc(-c2ccc(CN3CCOCC3)cc2)cc(C(=O)NCc2c(C)cc(C)[nH]c2=O)c1C)C1CCOCC1 + Cc1cncc(-c2nc(NCCc3c[nH]c4ccccc34)c3ncn(C(C)C)c3n2)c1", "ASSAY SYSTEM": "743489-274-T-PDC complex spheroid growth", "QUANTITY KIND": "viability, T/C", "ENDPOINT VALUE": 99.8}
{"COMPOUND": "Nc1ncn(C2CC(O)C(CO)S2)c(=O)n1 (centres undefined) + Cc1cncc(-c2nc(NCCc3c[nH]c4ccccc34)c3ncn(C(C)C)c3n2)c1", "ASSAY SYSTEM": "743489-274-T-PDC complex spheroid growth", "QUANTITY KIND": "viability, T/C", "ENDPOINT VALUE": 106}

In: What value of viability, T/C has been reported for the following compound? O=C(C=Cn1cnc(-c2cc(C(F)(F)F)cc(C(F)(F)F)c2)n1)NNc1cnccn1 + Cc1cncc(-c2nc(NCCc3c[nH]c4ccccc34)c3ncn(C(C)C)c3n2)c1
Out: 94.5

In: What value of viability, T/C has been recorded for this entry: CC(C)CC(NC(=O)C(Cc1ccccc1)NC(=O)c1cnccn1)B(O)O (centres undefined) + CC(CO)NC(=O)c1cc(-c2ccc(Cl)cc2)nn(-c2cnn(C)c2)c1=O
Out: 94.9

In: Value lookup for viability, T/C; key = O=C(C=Cn1cnc(-c2cc(C(F)(F)F)cc(C(F)(F)F)c2)n1)NNc1cnccn1 + Cc1ccccc1N=Nc1ccc(NC(=O)c2ccnn2C)c(C)c1
Out: 97.8

In: So what does the record say about viability, T/C for Nc1ncn(C2CC(O)C(CO)S2)c(=O)n1 (centres undefined) + Cc1ccccc1N=Nc1ccc(NC(=O)c2ccnn2C)c(C)c1 ?
Out: 86.3

====

System: 743489-274-T-PDC complex spheroid growth
Assay: Anticancer human tumor 743489-274-T-PDC cell line growth inhibition [AhR];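 further: spheroids exposed to agents for 7 days before readout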
Conditions: curve of first compound; second compound 10 µM
pIC50: −log10 of the molar value.
QUANTITY KIND: pIC50

Worked examples follow.
{"MOLECULE": "Nc1ncn(C2CC(O)C(CO)S2)c(=O)n1 (stereo not drawn) + Cc1cncc(-c2nc(NCCc3c[nH]c4ccccc34)c3ncn(C(C)C)c3n2)c1", "QUANTITY KIND": "pIC50", "ENDPOINT VALUE": "< 6.52"}
{"MOLECULE": "COc1cccc2c1C(=O)c1c(O)c3c(c(O)c1C2=O)CC(O)(C(=O)CO)CC3OC1CC(N)C(O)C(C)O1 (stereo not drawn) + Cc1ccccc1N=Nc1ccc(NC(=O)c2ccnn2C)c(C)c1", "QUANTITY KIND": "pIC50", "ENDPOINT VALUE": 5.32}

Now consider a different molecule.
In: // pIC50 lookup, key: O=C(c1cc(Cc2n[nH]c(=O)c3ccccc23)ccc1F)N1CCN(C(=O)C2CC2)CC1 + Cc1ccccc1N=Nc1ccc(NC(=O)c2ccnn2C)c(C)c1
Out: < 5.00
